B1: Hairpin Ribozyme (parent)
chain: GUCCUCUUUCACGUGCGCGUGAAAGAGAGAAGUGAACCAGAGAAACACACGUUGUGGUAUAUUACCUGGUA

variants of: B1; experiment: self-cleavage, relative activity (ratio to wild type); higher = more cleavage; co-transcriptional
Param threshold (0.2) applies to self-cleavage; output MET when value >= threshold, NOT MET when value < threshold.

Use these answered entries as a reference point.
# variant-designation, group
rows = [
    ("C6U G68U", "MET"),
    ("G25C U58G", "MET"),
    ("G1C A11C", "NOT MET"),
]

Then there is this variant:
Query string: Please check the record C18A A64G and state if its self-cleavage is at or above 0.2.
Result string: MET
